Provenance of the data: PubChem BioAssay

# test-system: 6-phosphogluconate dehydrogenase, decarboxylating (Homo sapiens) (UniProt P52209)
# Sequence (P52209 whole entry, looked up): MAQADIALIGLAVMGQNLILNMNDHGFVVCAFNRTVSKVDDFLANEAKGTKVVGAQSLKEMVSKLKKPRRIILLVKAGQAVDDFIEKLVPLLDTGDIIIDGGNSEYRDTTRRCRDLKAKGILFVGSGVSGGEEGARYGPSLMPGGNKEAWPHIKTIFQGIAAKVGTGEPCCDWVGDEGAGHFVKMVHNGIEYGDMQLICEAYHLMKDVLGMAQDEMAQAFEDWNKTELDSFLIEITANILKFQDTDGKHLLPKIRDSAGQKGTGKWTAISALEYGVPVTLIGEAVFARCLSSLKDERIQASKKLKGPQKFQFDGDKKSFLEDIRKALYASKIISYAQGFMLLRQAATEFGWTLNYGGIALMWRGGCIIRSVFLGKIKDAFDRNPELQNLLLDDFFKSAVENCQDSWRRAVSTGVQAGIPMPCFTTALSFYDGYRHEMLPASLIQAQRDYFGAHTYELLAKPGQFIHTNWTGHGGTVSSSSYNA
# assay-protocol: inhibition of human phosphogluconate dehydrogenase – biochemical, recombinant enzyme, NADPH absorbance, primary screen (AID 1159550)
# particulars: recombinant 6PGD, NADPH absorbance 341 nm; at 10 µM; stronger effect = higher value
Recorded measurements of inhibition, one per entry

- smiles-entry: "CCOC(=O)C(C)(C)Oc1ccc(Cl)cc1"
  inhibition / %: -1.28
- smiles-entry: "CN1CCC(=C2c3ccccc3Sc3ccccc32)CC1"
  inhibition / %: 13.2
- smiles-entry: "C[C@@H]1CC[C@@]2(OC1)O[C@H]1C[C@H]3[C@@H]4CC[C@H]5C[C@@H](O)CC[C@]5(C)[C@H]4CC(=O)[C@]3(C)[C@H]1[C@@H]2C"
  inhibition / %: 14.9
